# Tested on: HOP-92 NSCLC
# measurement-description: NCI tumour cell line growth inhibition, 48 h
recorded-endpoint: TGI (µM)
Report as a plain number; the unit µM is understood.

*Q* Tell me the measured TGI of COc1cc[nH]c1/C=C1\C(=O)Nc2ccc(F)c(C#CC3(O)CCOCC3)c21 , please.
*A* 2.02

*Q* Quick one: TGI of COc1cccc(-c2nn(-c3ccccc3)cc2-c2ccnc(NCCNC(=O)Nc3ccc(Cl)c(Cl)c3)c2)c1 ?
*A* 5.48

*Q* Given the entry NC1=NS(=O)(=O)N=C(N)C1=Cc1ccc([N+](=O)[O-])o1 , report its measured TGI.
*A* 26.7

----------
# Tested on: SK-OV-3 ovarian
# measurement-description: NCI tumour cell line growth inhibition, 48 h
recorded-endpoint: TGI

*Q* Find the measured TGI: item COC(=O)C12CC(C3CC31)C1CC12 (stereo not given) , target or system SK-OV-3 ovarian.
*A* > 100 µM

----------
Measured TGI by item
# Test system: OVCAR-8 ovarian
# measurement-description: NCI tumour cell line growth inhibition, 48 h

In the examples that follow, each entry is paired with its recorded TGI.
{"smiles": "COc1cc(N=Nc2cccc(S(=O)(=O)O)c2)c(C)cc1N=Nc1ccc(/C=C/c2ccc(N=[N+]([O-])c3ccc(/C=C/c4ccc(N=Nc5cc(C)c(N=Nc6cccc(S(=O)(=O)O)c6)cc5OC)cc4)c(S(=O)(=O)O)c3)cc2S(=O)(=O)O)cc1", "experimental-target": "OVCAR-8 ovarian", "recorded-endpoint": "TGI", "test-result": "> 100 µM"}
{"smiles": "Cc1cc(NS(=O)(=O)c2ccc(Nc3c4ccccc4nc4c(C(=O)NCCN(C)C)ccc(Cl)c34)cc2)no1", "experimental-target": "OVCAR-8 ovarian", "recorded-endpoint": "TGI", "test-result": "14 µM"}

*Q* Any idea what its TGI is? The compound is CC(=O)[CH-]C(=O)c1ccccc1.CC(=O)[CH-]C(=O)c1ccccc1.[O]=[U+2]=[O]
*A* > 100 µM

----------
# Test system: SF-539 CNS
# measurement-description: NCI tumour cell line growth inhibition, 48 h
TGI values, listed per item

For orientation, consider the following solved cases.
{"molecule": "O=c1[nH]c(=O)n(C2CC(O)C(CO)O2)cc1C#Cc1ccc(C(F)(F)F)cc1 (configuration not stated)", "recorded-endpoint": "TGI", "test-result": "> 100 µM"}
{"molecule": "COc1ccccc1Cn1cc2c(c1)-c1oncc1CC2", "recorded-endpoint": "TGI", "test-result": "5.13 µM"}
{"molecule": "O=C(c1ccccc1F)c1c(NCc2ccccc2)c(=O)c1=O", "recorded-endpoint": "TGI", "test-result": "> 100 µM"}
{"molecule": "NC(Cc1nn[nH]n1)C(=O)O (configuration not stated)", "recorded-endpoint": "TGI", "test-result": "> 100 µM"}

*Q* Request: TGI, test system SF-539 CNS, entry COc1ccccc1C(=O)c1c(N2CCCCC2)c(=O)c1=O
*A* > 100 µM

*Q* Look up TGI with SF-539 CNS for this molecule: Oc1c2cccc1Cc1cccc3c1OCCOCCOCCOCCOc1c(cccc1Cc1cccc(c1O)C3)C2
*A* > 100 µM

*Q* For SF-539 CNS, provide TGI of CC(C)(C)OC(=O)NC(Cc1ccccc1)C(=O)N[C@H]1c2ccsc2/C(=N/O)[C@H]1O (some centres not stated) please.
*A* > 100 µM

*Q* What TGI appears in the records for this molecule with SF-539 CNS? COc1ccccc1C(=O)c1cnc(NC2CCN(S(C)(=O)=O)CC2)nc1N
*A* 15.2 µM

*Q* // lookup TGI | system=SF-539 CNS | key= COc1ccc(C(=O)Cc2cc(OC)ccc2OC)cc1
*A* > 100 µM

*Q* What is its TGI for SF-539 CNS? Entry: COc1ccccc1C1C(C#N)=C(N)OC2=C1C(=O)CCC2 (configuration not stated)
*A* > 100 µM

*Q* Please state recorded TGI (tested on SF-539 CNS) of Clc1ccc2c(Cl)ncnc2c1
*A* > 100 µM

*Q* State its TGI on SF-539 CNS: c1ccc(SCCCC(Sc2ccccc2)Sc2ccccc2)cc1
*A* > 100 µM

*Q* Notebook entry, SF-539 CNS assay: TGI of CCOC(=O)c1c2c(n(C)c1-c1ccccc1)C(=O)C(C)=CC2=O = ?
*A* 14.6 µM

*Q* Entry CCCCCCCCCCCCOC1C(COCCN2CCCC2)OC2OC(C)(C)OC21 (configuration not stated) , system SF-539 CNS: what TGI was measured?
*A* 3.17 µM

*Q* Give SF-539 CNS TGI for C=C1C(=O)O[C@H]2C1[C@H](OC(=O)/C(C)=C\COC(C)=O)C[C@]1(CO1)[C@@H]1[C@H](O)[C@H]3O[C@@]3(C)[C@@H]12 (some centres not stated)
*A* > 65.4 µM

*Q* Give TGI (SF-539 CNS) of the following molecule: Cc1ccc(NCSc2ccc(Cl)cc2)cc1
*A* > 100 µM

*Q* Look up TGI with SF-539 CNS for this molecule: O=c1oc(-c2ccc(O)c(O)c2)cc2cc(O)cc(O)c12
*A* 91.5 µM

*Q* I'm curious: which TGI was measured for CCOC(=O)CCC1(C(=O)OC)CCCC1=O (configuration not stated) tested on SF-539 CNS?
*A* > 100 µM

*Q* # returns recorded TGI (system: SF-539 CNS) for Cc1ccc(NC(=O)CCC(=O)C2CC(=O)CC/C2=N\NC(=O)c2cc3ccccc3cc2O)cc1C (configuration not stated)
*A* 87.3 µM
